system: Hs-578T; assay: Antiproliferative activity against human Hs-578T cells assessed as growth inhibition at 10 uM measured after 48 hrs by NCI protocol based SRB assay relative to control; assay type: functional; conditions: read-out: GI
Decision: inhibition of growth at 10 µM >= 80% yields true, all other cases yield false.

Example results:
structure=N#Cc1c(-c2ccco2)nc2c(c(-c3ccccc3)nn2-c2ccccc2)c1-c1ccc(O)cc1 cat=false
structure=Cc1ccc(-c2nc3c(c(-c4ccccc4)nn3-c3ccccc3)c(-c3ccc(O)cc3)c2C#N)cc1 cat=false
structure=N#Cc1c(-c2ccc(Cl)cc2)nc2c(c(-c3ccccc3)nn2-c2ccccc2)c1-c1ccc(O)cc1 cat=false
structure=COc1cc(-c2c(C#N)c(-c3ccccc3)nc3c2c(-c2ccccc2)nn3-c2ccccc2)ccc1O cat=false

Next molecule, please.
Query string: Please indicate if the recorded inhibition of growth at 10 µM for N#Cc1c(-c2ccccc2)nc2c(c(-c3ccccc3)nn2-c2ccccc2)c1-c1ccc(O)cc1 meets or exceeds 80%.
Result string: true
